Hey, just so you know, these numbers are from the METLIN SMRT retention time set (Domingo-Almenara et al. 2019).

- protocol_summary: gradient 5% acetonitrile 3 min, to 50% in 2 min, to 85% in 15 min, held 3 min, 100 µL/min
- reported_conditions: column: Zorbax Extend-C18 2.1 x 50 mm; eluents: water / acetonitrile, 0.1% formic acid
Below, each entry is listed with its recorded RP-LC retention time.
Expressed in s, but write only the number.

Record excerpt, results attached:
>  <compound>
O=C(NC1CCN(c2cc(-c3ccc(Cl)cc3)[nH]n2)C1)c1cccc(Br)c1 (stereo not given)

>  <reported>
870

$$$$
>  <compound>
O=C(Cc1cccc(F)c1)N1CCCC1c1nc(-c2ccccc2Cl)no1 (stereo not given)

>  <reported>
1200

$$$$
>  <compound>
CN(C)c1cccc(C(=O)NC2CCN(c3cc(-c4ccccc4)[nH]n3)C2)c1 (stereo not given)

>  <reported>
664

$$$$
>  <compound>
O=C1CC(c2ccc(F)cc2)Cc2c1cnn2-c1nc2ccccc2[nH]1 (stereo not given)

>  <reported>
891

$$$$
>  <compound>
O=C(C1=CN(c2ccc(C(F)(F)F)cc2)c2cc(F)ccc2S1(=O)=O)N1CCOCC1

>  <reported>
875

$$$$
>  <compound>
CCCn1c(C)cnc1C1CN(S(=O)(=O)c2ccc(Cl)c(Cl)c2)C1

>  <reported>
724

$$$$
>  <compound>
Cc1cnc(C(=O)N2CCCCCCNC(=O)[C@@H]3CCC[C@@H]32)cn1

>  <reported>
649

$$$$
>  <compound>
O=C1NC2(CCN(C(=O)Nc3ccc(F)cc3)CC2)N=C1c1cccc(Cl)c1

>  <reported>
872

$$$$

Entry CN(C)CCNc1ccc(-c2nc(-c3cccc(F)c3)no2)cn1 ; RP-LC retention time = 678

O=C(CCCNC(=O)c1cc(-c2ccco2)on1)Nc1cccc2cccnc12 has a reported RP-LC retention time of 805

Per the record, Cc1cc(C)cc(Oc2nccn3c(=O)n(CC(=O)Nc4ccc(F)cc4)nc23)c1 has RP-LC retention time of 905

Looking up O=C1CCCc2cc(S(=O)(=O)N3CCCC3C(=O)N3CCN(c4ccccc4)CC3)ccc2N1 (stereo not given) , I found its RP-LC retention time recorded as 750

The value of RP-LC retention time measured for the compound CC(N)C(=O)OC(C)(C)Cc1ccc(Cl)cc1 (stereo not given) turned out to be 757

So, CC(C)c1ccc(Nc2c(-c3ccc(N(C)C)cc3)nc3cnccn23)cc1 ? Its RP-LC retention time was 1010

Reported RP-LC retention time ( CCn1cnc2ccc(C(=O)NC3CC3)cc2c1=O ) = 714

Reported RP-LC retention time of Cc1cccc(NC(=O)C2CCN(S(=O)(=O)c3ccc4c(c3)sc(=O)n4C)CC2)c1 : 910

Summary for this compound, COCC(=O)N1CCc2c(sc3ncnc(N4CCOCC4)c23)C1 : RP-LC retention time is 623

RP-LC retention time in this record for CCOC(=O)C1CCN(C(=O)c2sc(-c3cn(C(C)C)c4ncccc34)nc2C)CC1 : 961

Given item O=C(Nc1cnn(-c2ncncc2N2CCSCC2)c1)C1CCCCC1 , the value recorded as its RP-LC retention time is 778

Consider CCC(=O)NC(c1ccc(N(C)C)cc1)c1ccc2cccnc2c1O (stereo not given) . Its measured RP-LC retention time is 620

* * *

- protocol_summary: gradient 5% acetonitrile 3 min, to 50% in 2 min, to 85% in 15 min, held 3 min, 100 µL/min
- reported_conditions: column: Zorbax Extend-C18 2.1 x 50 mm; eluents: water / acetonitrile, 0.1% formic acid
Entries and their RP-LC retention time
Your answer should be a plain number; it is taken to be in s.

>  <compound>
CCc1ccc(N2CC(c3noc(-c4ccc(Cl)cc4)n3)CC2=O)cc1 (stereo not given)

>  <RP-LC retention time [s]>
1200

$$$$
>  <compound>
COc1ccc(-c2cn3c(CC(=O)Nc4ccc(F)cc4Cl)csc3n2)cc1OC

>  <RP-LC retention time [s]>
766

$$$$
>  <compound>
CCn1ccc(C(=O)NC2CCCC2)n1

>  <RP-LC retention time [s]>
709

$$$$
>  <compound>
CC1CCCN(c2nn(CC(=O)Nc3ccccc3Cl)c(=O)c3ccccc23)C1 (stereo not given)

>  <RP-LC retention time [s]>
1180

$$$$
>  <compound>
COc1ccc(CNS(=O)(=O)c2ccc(-c3c(C)noc3C)cc2)cc1

>  <RP-LC retention time [s]>
886

$$$$
>  <compound>
Cc1nc2cc(N3CC(C(=O)NCc4ccccc4Cl)CC3=O)ccc2o1 (stereo not given)

>  <RP-LC retention time [s]>
734

$$$$
>  <compound>
Cc1ccc2c(c1)NC(=O)C(C(=O)NC1CCCCCCC1)O2 (stereo not given)

>  <RP-LC retention time [s]>
895

$$$$
>  <compound>
O=C(Nc1nc(-c2ccc(Cl)cc2)cs1)c1ccc2c(c1)OCO2

>  <RP-LC retention time [s]>
1110

$$$$
>  <compound>
O=C(Nc1ccc2sccc2c1)c1ccc(Cl)s1

>  <RP-LC retention time [s]>
996

$$$$
>  <compound>
CC1CCN(c2ccc(C(=O)NCC3CCCO3)cc2S(=O)(=O)N2CCC(C)CC2)CC1 (stereo not given)

>  <RP-LC retention time [s]>
1170

$$$$

// COc1ccc(OC)c(NC(=O)Cn2c(N3CCCC3)nc(C)cc2=O)c1 : RP-LC retention time value = 654

* * *

- protocol_summary: gradient 5% acetonitrile 3 min, to 50% in 2 min, to 85% in 15 min, held 3 min, 100 µL/min
- reported_conditions: column: Zorbax Extend-C18 2.1 x 50 mm; eluents: water / acetonitrile, 0.1% formic acid
quantity_name: RP-LC retention time

Consider the reported RP-LC retention time for these compounds:
>  <compound>
CCn1c(=O)sc2cc(S(=O)(=O)N3CCC(C(=O)NCc4cccs4)CC3)ccc21

>  <reported>
832 s

$$$$
>  <compound>
Cc1cc(-c2c(C)sc(C)c2S(=O)(=O)N2CCN(c3cccc(Cl)c3)CC2)n[nH]1

>  <reported>
1040 s

$$$$
>  <compound>
Cc1cc(C)cc(-c2nnc(Cc3nc(-c4ccccc4C)no3)o2)c1

>  <reported>
1200 s

$$$$

Kindly note the recorded RP-LC retention time for COC[C@@H]1CN(S(=O)(=O)c2ccc(C#N)cc2)C[C@H]1c1ccccn1 , which is 746 s

RP-LC retention time for Cc1ccc(Nc2ncccc2S(N)(=O)=O)c(F)c1 is 840 s

In plain terms, c1ccc(-c2nnc(-c3ccc(-n4ccnc4)nc3)o2)cc1 has a documented RP-LC retention time of 639 s

Form: compound = Cc1ccc(NC(=O)N2CCN(CCn3c(C(C)C)nc4cccnc43)CC2)c(C)c1 ; RP-LC retention time = 621 s

The reported value for Oc1cccc(-c2nc3cnc(Br)cn3c2Nc2cccc(C(F)(F)F)c2)c1 in terms of RP-LC retention time is 902 s

# compound CC(=O)N1CCN(c2nc3c(s2)CC(C(=O)N2CCC(C)CC2)CC3)CC1 (centres undefined) ; its RP-LC retention time = 537 s

* * *

- protocol_summary: gradient 5% acetonitrile 3 min, to 50% in 2 min, to 85% in 15 min, held 3 min, 100 µL/min
- reported_conditions: column: Zorbax Extend-C18 2.1 x 50 mm; eluents: water / acetonitrile, 0.1% formic acid
Using RP-LC retention time as the sorting value, the categories are 1 (below 700 s), 2 (700 s to below 800 s), 3 (800 s or more)

Example entries and their recorded answers appear below.
>  <compound>
CCc1ccc(C(=O)N2CCC3(C2)C(=O)N(C)c2ccccc23)cc1 (stereo not given)

>  <assigned_class>
3

$$$$
>  <compound>
Cn1cnnc1C1CCCCN1S(=O)(=O)c1cccs1 (stereo not given)

>  <assigned_class>
1

$$$$
>  <compound>
COC(=O)c1ccccc1Nc1c(-c2ccc(Br)cc2)nc2cnccn12

>  <assigned_class>
3

$$$$
>  <compound>
Cc1cc2c(cc1S(=O)(=O)N1CCCCC1)N(C(=O)C1CC1)CC2

>  <assigned_class>
3

$$$$
>  <compound>
CN(C(=O)c1ccncc1)c1ccccc1

>  <assigned_class>
1

$$$$
>  <compound>
COc1cc(Cl)ccc1C(=O)N1C[C@@H]2C[C@H](NC(=O)c3ccccc3)[C@H]1C2

>  <assigned_class>
2

$$$$
>  <compound>
NCCc1ccc(S(=O)(=O)F)cc1

>  <assigned_class>
1

$$$$

Query string: Bin this entry: CCc1ccc(NC(=O)N2CCC(N3CCN(Cc4ccc(F)cc4)C(=O)C3=O)CC2)cc1
Result string: 2

* * *

- protocol_summary: gradient 5% acetonitrile 3 min, to 50% in 2 min, to 85% in 15 min, held 3 min, 100 µL/min
- reported_conditions: column: Zorbax Extend-C18 2.1 x 50 mm; eluents: water / acetonitrile, 0.1% formic acid
Assign TRUE whenever RP-LC retention time does not fall below 700 s; assign FALSE whenever it does.

Example results:
>  <smiles_text>
CCc1nnc(-c2ccc3ccn(CC(=O)NCc4cc(OC)ccc4OC)c3c2)o1

>  <assigned_class>
TRUE

$$$$
>  <smiles_text>
CN(C(=O)c1cc2c(=O)oc3ccccc3c2n1C)c1ccccc1F

>  <assigned_class>
TRUE

$$$$
>  <smiles_text>
CCN1CCN(c2ccc(NC(=O)c3ccc(Cl)s3)cn2)C1=O

>  <assigned_class>
TRUE

$$$$
>  <smiles_text>
Cc1cc(C)cc(C(=O)Nc2cccn3nc(C4CCC4)nc23)c1

>  <assigned_class>
TRUE

$$$$

Then there is this compound:
Query string: Has CSc1ncccc1C(=O)Nc1ccc2c(c1)CCC(=O)N2 a recorded RP-LC retention time greater than or equal to 700 s?
Result string: FALSE
